Target or system: TGF-beta receptor type-1 (Homo sapiens, UniProt P36897)
Sequence (P36897 whole entry): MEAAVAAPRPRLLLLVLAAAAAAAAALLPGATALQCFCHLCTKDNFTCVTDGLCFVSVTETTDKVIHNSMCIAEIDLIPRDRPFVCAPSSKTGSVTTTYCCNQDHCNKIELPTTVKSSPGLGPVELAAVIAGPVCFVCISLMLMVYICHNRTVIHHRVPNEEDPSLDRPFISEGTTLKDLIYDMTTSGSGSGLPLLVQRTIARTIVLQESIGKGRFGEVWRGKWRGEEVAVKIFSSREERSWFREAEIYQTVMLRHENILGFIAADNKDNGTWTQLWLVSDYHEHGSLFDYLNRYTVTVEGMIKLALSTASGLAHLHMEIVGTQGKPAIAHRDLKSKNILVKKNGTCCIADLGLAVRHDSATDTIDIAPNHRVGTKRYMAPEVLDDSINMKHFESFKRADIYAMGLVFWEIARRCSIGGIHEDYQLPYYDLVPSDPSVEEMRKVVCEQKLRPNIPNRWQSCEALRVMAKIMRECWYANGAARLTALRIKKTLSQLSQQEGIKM
Run description: Inhibition of human recombinant GST-fused ALK5 expressed in Sf9 insect cells using casein as substrate by proprietary radioisotopic protein kinase assay
Measurement kind: IC50 (nM)
Hi! Could you send only the number? It should be in nM, unit omitted.

These recorded examples may help you get a feel for the data.
Cc1ccc(F)c(-c2[nH]c(CNc3ccccc3)nc2-c2ccc3ncnn3c2)n1	9.76
C=Cc1cccc(NCc2nc(-c3ccc4ncnn4c3)c(-c3ccc(F)c(C)n3)[nH]2)c1	13.7
Cc1nc(-c2[nH]c(CNc3cccc(C#N)c3)nc2-c2ccc3ncnn3c2)ccc1F	7.68
Cc1ccc(F)c(-c2[nH]c(CNc3cccc(C#N)c3)nc2-c2ccc3ncnn3c2)n1	9.23
Cc1nc(-c2[nH]c(CNc3ccccc3F)nc2-c2ccc3ncnn3c2)ccc1F	12.5
Cc1nc(-c2[nH]c(CNc3ccccc3)nc2-c2ccc3ncnn3c2)ccc1F	9.23

Query :: # get_value(readout='IC50', item= Cc1ccc(F)c(-c2[nH]c(CNc3ccccc3F)nc2-c2ccc3ncnn3c2)n1 )
Result :: 12.1

Query :: # get_value(readout='IC50', item= Cc1nc(-c2[nH]c(CNc3cccc(C(N)=O)c3)nc2-c2ccc3ncnn3c2)ccc1F )
Result :: 10.8

Query :: # get_value(readout='IC50', item= Cc1cc(F)cc(-c2[nH]c(CNc3ccccc3F)nc2-c2ccc3ncnn3c2)n1 )
Result :: 41.9

Query :: # get_value(readout='IC50', item= Cc1ccc(F)c(-c2[nH]c(CNc3cccc(C(N)=O)c3)nc2-c2ccc3ncnn3c2)n1 )
Result :: 11

Query :: # get_value(readout='IC50', item= Cc1cc(F)cc(-c2[nH]c(CNc3ccccc3)nc2-c2ccc3ncnn3c2)n1 )
Result :: 72.5

Query :: # get_value(readout='IC50', item= C=Cc1cccc(NCc2nc(-c3ccc4ncnn4c3)c(-c3nc(C)ccc3F)[nH]2)c1 )
Result :: 9.81

----------
Target or system: Mitogen-activated protein kinase 14 (Homo sapiens)
Sequence (Q16539 whole entry): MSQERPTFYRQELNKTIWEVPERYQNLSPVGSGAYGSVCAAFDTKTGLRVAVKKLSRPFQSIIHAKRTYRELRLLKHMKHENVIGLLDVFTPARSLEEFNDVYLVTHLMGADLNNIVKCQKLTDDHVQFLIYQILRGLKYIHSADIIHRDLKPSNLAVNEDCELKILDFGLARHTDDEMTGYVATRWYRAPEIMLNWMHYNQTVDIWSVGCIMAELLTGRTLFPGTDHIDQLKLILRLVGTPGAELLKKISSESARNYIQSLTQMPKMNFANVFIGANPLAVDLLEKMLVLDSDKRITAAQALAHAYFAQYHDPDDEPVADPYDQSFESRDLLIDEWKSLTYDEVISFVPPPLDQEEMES
Run description: Inhibition of human recombinant p38alpha expressed in Escherichia coli using ATF2 as substrate by proprietary radioisotopic protein kinase assay
pIC50: −log10 of the molar value.
Would you please tag the item Y when its pIC50 is 6 or above, and N when it is below?

Worked examples, 3 molecules total:
Cc1nc(-c2[nH]c(CNc3ccccc3F)nc2-c2ccc3ncnn3c2)ccc1F	N
Cc1cc(F)cc(-c2[nH]c(CNc3ccccc3F)nc2-c2ccc3ncnn3c2)n1	N
Cc1cc(F)cc(-c2[nH]c(CNc3ccccc3)nc2-c2ccc3ncnn3c2)n1	N

Query :: Has Cc1ccc(F)c(-c2[nH]c(CNc3cccc(C#N)c3)nc2-c2ccc3ncnn3c2)n1 a recorded pIC50 greater than or equal to 6?
Result :: Y

Query :: Has Cc1nc(-c2[nH]c(CNc3ccccc3)nc2-c2ccc3ncnn3c2)ccc1F a recorded pIC50 greater than or equal to 6?
Result :: N

Query :: Has Cc1ccc(F)c(-c2[nH]c(CNc3ccccc3)nc2-c2ccc3ncnn3c2)n1 a recorded pIC50 greater than or equal to 6?
Result :: Y

Query :: Has C=Cc1cccc(NCc2nc(-c3ccc4ncnn4c3)c(-c3ccc(F)c(C)n3)[nH]2)c1 a recorded pIC50 greater than or equal to 6?
Result :: N

Query :: Has C=Cc1cccc(NCc2nc(-c3ccc4ncnn4c3)c(-c3nc(C)ccc3F)[nH]2)c1 a recorded pIC50 greater than or equal to 6?
Result :: Y

Query :: Has Cc1ccc(F)c(-c2[nH]c(CNc3cccc(C(N)=O)c3)nc2-c2ccc3ncnn3c2)n1 a recorded pIC50 greater than or equal to 6?
Result :: Y

Query :: Has Cc1cccc(-c2nn3c(c2-c2ccnc4ccc(C(N)=O)cc24)CCC3)n1 [GALUNISERTIB] a recorded pIC50 greater than or equal to 6?
Result :: Y
